target: NaV1.3 (Homo sapiens, UniProt Q9NY46)
Construct: expressed in transfected cells
Sequence (Q9NY46 whole entry): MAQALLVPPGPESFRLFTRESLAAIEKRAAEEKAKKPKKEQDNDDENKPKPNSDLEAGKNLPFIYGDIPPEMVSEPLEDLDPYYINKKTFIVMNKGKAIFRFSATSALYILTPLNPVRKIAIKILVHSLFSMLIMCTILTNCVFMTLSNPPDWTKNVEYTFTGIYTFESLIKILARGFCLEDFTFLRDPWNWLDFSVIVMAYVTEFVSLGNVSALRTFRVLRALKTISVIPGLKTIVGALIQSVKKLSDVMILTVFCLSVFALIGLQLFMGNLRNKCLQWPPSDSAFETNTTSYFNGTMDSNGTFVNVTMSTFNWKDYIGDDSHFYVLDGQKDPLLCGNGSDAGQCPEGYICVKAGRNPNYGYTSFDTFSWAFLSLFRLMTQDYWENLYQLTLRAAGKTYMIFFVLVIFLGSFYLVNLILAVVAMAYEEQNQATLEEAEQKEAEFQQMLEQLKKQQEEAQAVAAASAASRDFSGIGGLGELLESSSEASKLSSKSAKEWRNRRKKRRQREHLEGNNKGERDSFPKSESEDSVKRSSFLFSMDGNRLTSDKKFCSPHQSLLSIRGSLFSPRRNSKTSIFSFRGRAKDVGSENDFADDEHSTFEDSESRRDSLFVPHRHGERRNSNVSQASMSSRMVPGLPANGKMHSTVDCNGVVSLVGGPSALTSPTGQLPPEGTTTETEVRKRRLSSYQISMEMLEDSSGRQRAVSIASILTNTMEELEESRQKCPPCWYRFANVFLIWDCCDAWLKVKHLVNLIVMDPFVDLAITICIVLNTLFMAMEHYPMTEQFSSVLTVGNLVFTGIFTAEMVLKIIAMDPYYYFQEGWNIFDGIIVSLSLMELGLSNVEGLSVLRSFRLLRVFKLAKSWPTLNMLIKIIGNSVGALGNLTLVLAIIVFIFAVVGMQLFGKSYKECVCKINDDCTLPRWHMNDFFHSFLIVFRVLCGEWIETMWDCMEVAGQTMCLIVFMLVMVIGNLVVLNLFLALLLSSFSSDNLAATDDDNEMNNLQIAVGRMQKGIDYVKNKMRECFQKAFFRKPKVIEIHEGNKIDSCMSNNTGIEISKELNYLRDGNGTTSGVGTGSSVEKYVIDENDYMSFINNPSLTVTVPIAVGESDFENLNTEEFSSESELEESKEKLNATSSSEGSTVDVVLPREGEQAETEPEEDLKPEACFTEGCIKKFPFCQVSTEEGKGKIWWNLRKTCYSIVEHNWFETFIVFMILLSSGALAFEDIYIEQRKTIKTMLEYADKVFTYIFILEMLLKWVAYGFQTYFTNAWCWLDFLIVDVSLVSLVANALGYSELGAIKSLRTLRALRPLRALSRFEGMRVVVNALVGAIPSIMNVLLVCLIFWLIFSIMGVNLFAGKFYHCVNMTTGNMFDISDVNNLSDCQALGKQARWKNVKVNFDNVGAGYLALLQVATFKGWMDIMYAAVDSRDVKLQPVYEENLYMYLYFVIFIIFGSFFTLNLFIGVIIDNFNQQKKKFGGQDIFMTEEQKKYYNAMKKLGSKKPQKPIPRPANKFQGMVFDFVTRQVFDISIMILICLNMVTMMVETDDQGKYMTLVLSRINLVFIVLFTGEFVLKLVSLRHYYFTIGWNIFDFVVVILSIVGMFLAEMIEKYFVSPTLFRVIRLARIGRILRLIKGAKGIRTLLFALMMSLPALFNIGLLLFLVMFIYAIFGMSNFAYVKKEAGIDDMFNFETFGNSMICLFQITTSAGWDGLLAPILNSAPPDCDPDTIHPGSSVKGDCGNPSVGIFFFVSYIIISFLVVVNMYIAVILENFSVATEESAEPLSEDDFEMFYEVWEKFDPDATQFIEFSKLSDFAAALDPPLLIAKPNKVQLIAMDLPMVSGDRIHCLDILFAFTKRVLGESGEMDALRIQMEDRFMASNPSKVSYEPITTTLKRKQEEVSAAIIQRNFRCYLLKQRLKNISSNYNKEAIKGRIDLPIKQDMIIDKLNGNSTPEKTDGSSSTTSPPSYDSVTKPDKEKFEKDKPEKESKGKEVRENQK
procedure_summary: VIPR optical membrane potential assay with electrical stimulation, HEK293 cells stably expressing NaV1.3
Assay type: cell-based
condition_parameters: compound activity for the NaV1.3 receptors
# IC50 values compiled below

smiles_code	result_type	observed_measurement
C[C@H](C(=O)Nc1ccc(S(=O)(=O)NC(=O)C2CCCC2)cc1)n1ccc2c(F)cccc21	IC50	> 5 µM

IN: What is its IC50 for NaV1.3 (Homo sapiens, UniProt Q9NY46)? Entry: NC(=O)NS(=O)(=O)c1ccc(NC(=O)CCn2ccc3cc(Cl)ccc32)cc1
OUT: > 5 µM

IN: Provide value of IC50 for this record tested with NaV1.3 (Homo sapiens, UniProt Q9NY46): COC(=O)NS(=O)(=O)c1ccc(NC(=O)[C@H](C)N2CCCc3ccccc32)cc1
OUT: > 5 µM

IN: Quick check: IC50 on NaV1.3 (Homo sapiens, UniProt Q9NY46), item COC(=O)NS(=O)(=O)c1ccc(NC(=O)Cn2c(C)cc3cc(Cl)ccc32)cc1 ?
OUT: > 5 µM

IN: Provide the documented IC50 with NaV1.3 (Homo sapiens, UniProt Q9NY46) as the system for COC(=O)NS(=O)(=O)c1ccc(NC(=O)c2ccc(OC)cc2)cc1
OUT: > 5 µM

IN: Checklist item: IC50 tested on NaV1.3 (Homo sapiens, UniProt Q9NY46), entry COC(=O)NS(=O)(=O)c1ccc(NC(=O)Cn2cc(C)c3cc(Cl)ccc32)cc1 , value?
OUT: > 5 µM

IN: Give IC50 (NaV1.3 (Homo sapiens, UniProt Q9NY46)) of the following molecule: COC(=O)NS(=O)(=O)c1ccc(NC(=O)[C@@H](C)N2CCCc3cc(Cl)c(C)cc32)cc1
OUT: < 2 µM

IN: Quick check: IC50 on NaV1.3 (Homo sapiens, UniProt Q9NY46), item COC(=O)NS(=O)(=O)c1ccc(NC(=O)Cn2cc(C)c3ccccc32)cc1 ?
OUT: > 5 µM

IN: // map COC(=O)NS(=O)(=O)c1ccc(NC(=O)COc2ccc(Cl)c(Cl)c2)cc1 to recorded IC50 (system: NaV1.3 (Homo sapiens, UniProt Q9NY46))
OUT: > 5 µM

IN: IC50 of COC(=O)NS(=O)(=O)c1ccc(NC(=O)Cn2ccc3cc(C)ccc32)cc1 on NaV1.3 (Homo sapiens, UniProt Q9NY46)?
OUT: > 5 µM

----------
target: NaV1.3 (Homo sapiens)
Construct: expressed in transfected cells
procedure_summary: VIPR optical membrane potential assay with electrical stimulation, HEK293 cells stably expressing NaV1.3
Format: cell-based
condition_parameters: compound activity for the NaV1.3 receptors
pIC50: −log10 of the molar value.
result_type: pIC50

The examples below pair each entry with its known result.
compound	result_type	observed_measurement
COc1ccccc1C(=O)NS(=O)(=O)c1ccc(NC(=O)COc2ccnc3c(C(F)(F)F)cccc23)cc1	pIC50	< 5.30
COC(=O)NS(=O)(=O)c1ccc(NC(=O)C(C)n2ccc3c(F)cccc32)cc1 (centres unmarked)	pIC50	> 5.70
CCC(=O)NS(=O)(=O)c1ccc(NC(=O)COc2ccnc3c(C(F)(F)F)cccc23)cc1	pIC50	< 5.30
COC(=O)NS(=O)(=O)c1ccc(NC(=O)COc2ccc(F)c(Cl)c2)cc1	pIC50	< 5.30

IN: Quick one: pIC50 for COC(=O)NS(=O)(=O)c1ccc(NC(=O)[C@@H](C)n2ccc3c(F)cccc32)cc1 ?
OUT: > 5.70

IN: Value lookup for pIC50; key = COC(=O)NS(=O)(=O)c1ccc(NC(=O)[C@H](CC(C)C)n2ccc3c(F)cccc32)cc1
OUT: < 5.30

IN: I have this compound here, COC(=O)NS(=O)(=O)c1ccc(NC(=O)C2(c3ccc4c(c3)OCO4)CC2)cc1 , and I need its recorded pIC50.
OUT: < 5.30

IN: Given the entry COC(=O)NS(=O)(=O)c1ccc(NC(=O)Cc2ccccc2)cc1 , report its measured pIC50.
OUT: < 5.30
